Ref: paper PMC5630632

assay: Human plasma protein binding (rapid equilibrium dialysis, Cyprotex); format: in vitro ADME; details: human, plasma, human plasma; read-out: Human Plasma Protein Binding % Unbound
Cut-off 0.002 on fraction unbound at 4 h, 5 µM: below means Y, at or above means N.

- Compound: "Cc1ccccc1[C@@H](C(=O)NC1CCCC1)N(C(=O)Cn1cnc2ccccc21)c1cccc(F)c1"
  Cat: "N"
- Compound: "CC(C)Nc1nc(Nc2ccccc2)nc(-c2ccccc2)n1"
  Cat: "Y"
- Compound: "O=C(Nc1cccc(C(F)(F)F)c1)Nc1cc(S(=O)(=O)NC2CC2)ccc1-c1ccsc1"
  Cat: "Y"
- Compound: "CC(=O)N1CCN(Cc2ccc([C@H](C)Nc3nccc(N4C(=O)OC[C@@H]4C(C)C)n3)cc2)CC1"
  Cat: "N"
- Compound: "COc1c(C)cc(NC(=O)c2nn(Cc3ccc(F)cc3)c3c2CN(C(=O)c2ccc[nH]2)C[C@]3(C)C(N)=O)cc1C"
  Cat: "N"
- Compound: "N#Cc1ccnc(N2C(=O)CC[C@H]2C(=O)N(c2cncc(F)c2)[C@H](C(=O)NC2CC(F)(F)C2)c2ccccc2Cl)c1"
  Cat: "N"
- Compound: "Cc1ccccc1C(C(=O)NC1CCCCC1)N(C(=O)Cn1ccnc1C)c1cccc(F)c1 (stereo not drawn)"
  Cat: "N"
- Compound: "CC(C)(O)CNc1nc(Nc2ccnc(C(F)(F)F)c2)nc(-c2cccc(C(F)(F)F)n2)n1"
  Cat: "N"

Turning to the following compound.
Prompt line: Check if fraction unbound at 4 h, 5 µM falls below 0.002 for Cc1ccccc1C(C(=O)NC1CCCCC1)N(C(=O)Cn1cnc2ccccc21)c1cccc(F)c1 (stereo not drawn) .
Response line: Y
